The measured values listed here are drawn from ChEMBL document CHEMBL1201862.

# Test system: MCF7
# protocol.notes: NCI tumour cell line growth inhibition, 48 h
Active and inactive are the calls of the source. No stated cut-off is given here; in the data, active = GI50 up to about 1.1 µM and inactive = higher.
Output constraint: value belongs to 1.0 for active, 0.0 for inactive

>  <compound>
CN1CCN(c2ccc([N+](=O)[O-])c3no[n+]([O-])c23)CC1

>  <assigned.label>
1.0

$$$$

Please examine the following record next.
For this compound, state the assay outcome: COC(=O)C(Cc1ccccc1)NC(=O)c1ccc(CNC(=S)NCc2cccc(CNC(=S)NCc3ccccc3)c2)cc1 (configuration not stated)
0.0

---

# System: CCRF-CEM
# protocol.notes: NCI tumour cell line growth inhibition, 48 h
Active and inactive are the calls of the source. Cut-off read from the data, not from the text of the source: active = GI50 up to about 1.1 µM and inactive = higher.
readout.label: GI50

>  <molecule>
O=C(CC(=O)C(=O)Nc1ccccc1)CC(c1ccccc1)c1c(O)c2ccccc2oc1=O (centres undefined)

>  <GI50>
> 100 µM (inactive)

$$$$

Tell us which GI50 value is on record for C=CCc1cccc2cc(C(=O)Nc3ccccc3)c(=N)oc12
> 100 µM (inactive)

Tell us which GI50 value is on record for CNC(=O)C1(N)c2ccccc2C=Cc2ccccc21
> 100 µM (inactive)

Tell us which GI50 value is on record for COc1cc(OC)c(/C=C\c2ccnc3ccccc23)c(OC)c1
1.7 µM (inactive)
